Tested on: HOP-92 NSCLC
Assay: NCI-60 one-dose screen, 48 h
Details: 10 µM unless noted
Compounds without any hit were thinned out: in the full panel of roughly 83,000, 20% have a hit. Calls of active or inactive are those of the source. How the source made its calls: active means growth percent below 10; inactive means the rest.
Give one outcome, nothing more. List: 1.0 = active, 0.0 = inactive

// query Tell me the assay call for CN1CCN(CCS(=O)(=O)Nc2cc(-c3ccc4ncnc(Nc5ccc(F)c(Cl)c5)c4c3)cnc2Cl)CC1 please.
// result 1.0

// query Can you look up the reported call for COc1c(B(O)O)cc(F)cc1-c1nc2ccc3[nH]ncc3c2c2c1COCC2 for me?
// result 0.0

// query Could you check what this test reported for COc1ccc(Nc2ncnc3sc4c(c23)CCN(Cc2ccccc2)C4)cc1 ?
// result 0.0

// query Hey, what did the test say about COC(=O)c1c(C(=O)OC)c2ccc3c4ccccc4ccc3n2c1C(=O)OC ?
// result 0.0

// query What classification did Oc1ccc(Cl)c(Nc2ncnc3c2cnn3CC(Cl)c2ccc(Br)cc2)c1 (centres undefined) end up with in this test?
// result 1.0

// query Could you please tell me the result logged for Cc1cccc(/C=C/c2ccc(NC(=S)NCCCCN(C)C)cc2)c1 in this assay?
// result 1.0

// query How did this test come out for Cc1ccc(S(=O)(=O)N(CCn2ccnc2[N+](=O)[O-])CCn2ccnc2[N+](=O)[O-])cc1 ?
// result 0.0

// query Hi team, can someone confirm the assay call for O=C(Cn1c(/C=C/c2ccc([N+](=O)[O-])cc2)nc2ccccc2c1=O)Nc1ccccc1 ?
// result 0.0

// query # lookup: test call for COc1ccc(N=Nc2c(N)nn3c(N)c(C#N)c(-c4ccc(C)cc4)nc23)cc1
// result 0.0

// query What did the test return for COC(=O)CSC1=C(C)C(=O)C(OC)=C(OC)C1=O ?
// result 0.0

// query In this assay, the call recorded for COc1cc2cc(C(=O)N3C[C@@H](CCl)c4c3cc(OC(=O)N(CCC(=O)N3CCN(C)CC3)[C@H]3CCSSC3)c3ccccc43)[nH]c2c(OC)c1OC was what?
// result 1.0

// query Could you check what this test reported for CCOC(=O)c1ccc(NC(=S)NC(=O)c2cccc(NC(=O)c3ccc(C)cc3)c2)cc1 ?
// result 0.0

// query # lookup: test call for CCCCCCCOc1ccc(S(=O)(=O)Nc2ccc(C)c(F)c2C(=O)O)cc1
// result 1.0

// query Which result was noted for this molecule in the test: Fc1ccc(Nc2nnc(-c3c[nH]c4ccccc34)o2)cc1
// result 0.0

// query Hi team, can someone confirm the assay call for N#C/C(=C/c1ccc(Cl)cc1)c1nnc(NC(=O)c2ccc(-n3c(=O)[nH]c4ccccc4c3=O)cc2)s1 ?
// result 0.0

// query For Nc1ccc(-c2ccc3ncnc(N4CCc5cc(F)c(Cl)cc54)c3c2)cn1 , what call appears in the results of this test?
// result 1.0

// query What was the test verdict on COc1ccc2c(c1)C(=O)N(C)C2C1c2c(cc3c(c2OC)OCO3)CCN1C (centres undefined) ?
// result 0.0

// query Recorded call for O=C(c1ccc(Cl)cc1)C1[C@H](c2ccccc2Cl)[C@@H](c2ccccc2)NC12C(=O)Nc1ccc(Br)cc12 (some centres undefined) ?
// result 1.0

// query Test call, this molecule: COC(=O)c1cc(C(=O)C(Br)Br)n2c1ccc1c3ccccc3ccc12
// result 0.0

----------
System: CAKI-1 renal
Test: NCI-60 one-dose screen, 48 h (100 = growth as untreated, 0 = no growth, -100 = all killed)
Conditions: 10 µM unless noted
Compounds without any hit were thinned out: in the full panel of roughly 83,000, 20% have a hit.
measured_metric: growth (%)
Kindly answer with a numeric value in %, unit omitted.

// query Provide one value: measured growth of Nc1nn2c(-c3cc4cc(Br)ccc4oc3=O)ccnc2c1N=Nc1ccc(Br)cc1
// result 3.98

// query Look up and state reported growth for O=C(Nc1ccc(Br)cc1)Nc1ccc(-c2ccc3c(c2)NC(=O)/C3=C\c2ccc[nH]2)cc1
// result 31.1

// query Return reported growth. Input compound: CN1C(=O)C2(C(C#N)=C(c3ccc(Cl)cc3)Nc3c2c(-c2ccccc2)nn3-c2ccccc2)c2ccccc21 (stereo not given)
// result 71

// query Return the recorded growth value; entry: CC1=C(C)C(=O)C(N2CCSCC2)=CC1=O
// result 93.2

// query Supply reported growth belonging to this compound: COc1ccc(N=Nc2c(N)nn3c(-c4ccc(F)cc4)ccnc23)cc1
// result 94.5

// query Annotate the compound CN1C(=O)/C(=C/c2ccco2)S/C1=N/c1nccs1 with its measured growth.
// result 91.7

// query Look up and report measured growth for this entry: Clc1ccccc1Nc1nnc(-c2c[nH]c3ccccc23)o1
// result 32.7

// query Give growth for the following compound: CCOc1ccccc1NC(=O)N/C(N)=N/c1nc2ccccc2s1
// result 17.8

// query Return growth for the following compound: COc1cc(C=O)ccc1OC(=O)c1cc(-c2ccc(C)cc2)n(-c2ccc(S(C)(=O)=O)cc2)n1
// result 93.5

// query Look up growth of Cc1nn(-c2ccccc2)c2nc(C)n(C(=O)N/N=C/c3ccccc3)c(=O)c12 and report it.
// result 76.9

----------
Answer each item with its documented growth.
System: HCT-15 colon
Test: NCI-60 one-dose screen, 48 h (100 = growth as untreated, 0 = no growth, -100 = all killed)
Conditions: 10 µM unless noted
This is part of a sample that, as a whole, favours compounds with a hit. Of some 83,000 tested, about 20% had one in any assay.
// units = %; emit number, no label

// query Consider the compound COc1cc(/C=N/NC(=O)c2ccc(OCc3nc4ccc(C)cc4[nH]3)cc2)cc(OC)c1OC and give its recorded growth.
// result 38.9

// query // Input: Fc1cccc(CNc2nc(SCCN3CCOCC3)nc3c2cnn3CC(Cl)c2ccc(Br)cc2)c1 (centres undefined) . Output its growth only.
// result -64.7

// query Annotate the compound COc1ccc(N=Nc2c(N)nn3c(-c4ccc(OC)c(OC)c4)ccnc23)cc1 with its measured growth.
// result 91.7

// query Answer with reported growth of c1n[nH]cc1-c1nc2ccc3[nH]ncc3c2c2c1CC1(CCOCC1)CC2
// result 39

// query Consider the compound C/C(=N/O)c1ccc(NC(=O)CSc2nnc(-c3ccc4nc(-c5ccc(Cl)cc5)[nH]c4c3)o2)cc1 and give its recorded growth.
// result 99.1

// query Indicate its recorded growth; the compound in question is O=C1/C(=C/c2cccc3c2OCO3)Cc2c(F)cc(Br)cc21
// result 102

// query Query growth for Cc1ccc(N=Nc2c(N)nn3c(-c4cc5ccccc5oc4=O)ccnc23)cc1
// result 40.6

// query Supply reported growth belonging to this compound: Cc1ccc(C(=O)Nc2cc(-c3ccccc3)cc(C(F)(F)F)c2)cc1C#Cc1cnc2cccnn12
// result 57.7

// query Item COc1cc(/C=C/C(=O)c2cnn(-c3cc(=O)[nH]c4ccc(Br)cc34)c2C)cc(OC)c1OC : provide growth
// result -54.9

----------
Tested on: SK-MEL-2 melanoma
Test: NCI-60 one-dose screen, 48 h (100 = growth as untreated, 0 = no growth, -100 = all killed)
Settings: 1 µM
The panel holds about 83,000 compounds, 20% with a hit somewhere; the sample as a whole holds those more often.
Provide the reported growth of each item.
Numeric only. Scale: %

// query Supply measured growth of CC/C(=C(/c1ccc(O)cc1)c1ccc(OCCN(C)C(=O)COCCOCCNC(=O)Cc2ccc3c(c2)CN([C@@H]2CCC(=O)NC2=O)C3=O)cc1)c1ccccc1 in your reply.
// result 95.4

// query Give the reported growth for this molecule. CC/C(=C(/c1ccc(O)cc1)c1ccc(OCCN(C)C(=O)COCCOCCNC(=O)c2ccc3c(c2)CN([C@@H]2CCC(=O)NC2=O)C3=O)cc1)c1ccccc1
// result 101

// query For the molecule CC/C(=C(/c1ccc(O)cc1)c1ccc(OCCN(C)C(=O)CCOCCNC(=O)Cc2ccc3c(c2)CN([C@@H]2CCC(=O)NC2=O)C3=O)cc1)c1ccccc1 , report growth.
// result 101

// query Give recorded growth. CC/C(=C(\c1ccc(O)cc1)c1ccc(OCCNC)cc1)c1ccccc1
// result 95.1

----------
Test system: RXF 393 renal
Assay: NCI-60 one-dose screen, 48 h
Details: 10 µM unless noted
Compounds without any hit were thinned out: in the full panel of roughly 83,000, 20% have a hit. Calls of active or inactive are those of the source. How the source made its calls: active means growth percent below 10; inactive means the rest.
Log the outcome using a class from 1 (yes) (active), 0 (no) (inactive)

// query Tell me the assay call for Cc1cccc(-c2ccccc2Oc2ccc3nnc(Cl)n3n2)c1 please.
// result 0 (no)

// query How did this test come out for O=C(Nc1nc2ccc([N+](=O)[O-])cc2s1)Nc1ccccc1F ?
// result 1 (yes)

// query # outcome recorded in this test, key = Cc1ccc(Nc2nnc(-c3c[nH]c4ccccc34)o2)c(C)c1
// result 1 (yes)

// query For O=c1ccc(Cn2c(C(F)(F)F)cc3c(Cl)ncnc32)c[nH]1 , what call appears in the results of this test?
// result 0 (no)

// query Hey, what did the test say about Nc1ccc(-c2ccc3ncnc(N4CCc5cc(F)c(Cl)cc54)c3c2)cn1 ?
// result 1 (yes)

// query Name the outcome recorded for O=C(Nc1ccc(-c2ccc3c(c2)NC(=O)/C3=C\c2ccc[nH]2)cc1)Nc1cccc(Cl)c1 in the assay.
// result 1 (yes)

// query Would you mind telling me which call this test gave COc1ccc(NC(=O)N/N=C/c2c[nH]c3ccccc23)cc1 ?
// result 0 (no)
